# TARGET: T1, Fc-tagged human TSLP antigen (huTSLP-Fc) (human, biotin-labeled in the blocking assays)
# T1 construct: whole entry named; also called recombinant human TSLP-Fc
# ASSAY_OVERVIEW: competition ELISA: blocks TSLP binding to TSLP receptor
// pIC50 lookup, one value per entry
pIC50 here: minus log base 10 of the concentration, concentration in moles per litre.

// below: answered binders
hu199-15 (antibody, human IgG1, kappa, V domains shown, IgG1-YTE, kappa) VH: EVQLVQSGAEVKKPGASVKVSCKASGYTFTTYWMHWVRQAPGQGLEWIGMIDPSDSETTLIQKFKDRATLTVDKSTSTAYMELSSLRSEDTAVYYCARTLDGYYDYWGQGTTVTVSS VL: DIQMTQSPSSLSASVGDRVTITCRASENIYSYLAWYQQKPGKSPQLLVYFAKTLAEGVPSRFSGSGSGTQFTLTISSLQPEDFATYYCQHHYGTPWTFGGGTKVEIKR: 9.54
hu199-01 (antibody, human IgG1, kappa, V domains shown, IgG1-YTE, kappa) VH: EVQLVQSGAEVKKPGASVKVSCKASGYTFTTYWMHWVRQAPGQGLEWMGMIDPSDSETTLIQKFKDRVTMTVDKSTSTAYMELSSLRSEDTAVYYCARTLDGYYDYWGQGTTVTVSS VL: DIQMTQSPSSLSASVGDRVTITCRASENIYSYLAWYQQKPGKAPKLLIYFAKTLAEGVPSRFSGSGSGTDFTLTISSLQPEDFATYYCQHHYGTPWTFGGGTKVEIKR: 9.72
hu199-30 (antibody, human IgG1, kappa, V domains shown, IgG1-YTE, kappa) VH: EVQLVQSGAEVKKPGASVKVSCKASGYTFTTYWMHWVKQAPGQGLEWMGMIDPSDSETTLIQKFKDKVTMTVDKSTSTAYMELSSLRSEDTAVYYCARTLDGYYDYWGQGTTVTVSS VL: DIQMTQSPSSLSASVGDRVTITCRASENIYSYLAWYQQKPGKSPQLLVYFAKTLAEGVPSRFSGSVSGTQFTLTISSLQPEDFATYYCQHHYGTPWTFGGGTKVEIKR: 9.46

Sure, the documented pIC50 for hu199-35 (antibody, human IgG1, kappa, V domains shown, IgG1-YTE, kappa) VH: EVQLVQSGAEVKKPGASVKVSCKASGYTFTTYWMHWVKQAPGQGLEWMGMIDPSDSETTLIQKFKDKVTLTVDKSTSTAYMELSSLRSEDTAVYYCARTLDGYYDYWGQGTTVTVSS VL: DIQMTQSPSSLSASVGDRVTITCRASENIYSYLAWYQQKPGKAPKLLVYFAKTLAEGVPSRFSGSVSGTDFTLTISSLQPEDFATYYCQHHYGTPWTFGGGTKVEIKR is 9.31

get_value(item= hu199-23 (antibody, human IgG1, kappa, V domains shown, IgG1-YTE, kappa) VH: EVQLVQSGAEVKKPGASVKVSCKASGYTFTTYWMHWVKQAPGQGLEWIGMIDPSDSETTLIQKFKDKATLTVDKSTSTAYMELSSLRSEDTAVYYCARTLDGYYDYWGQGTTVTVSS VL: DIQMTQSPSSLSASVGDRVTITCRASENIYSYLAWYQQKPGKAPKLLVYFAKTLAEGVPSRFSGSVSGTDFTLTISSLQPEDFATYYCQHHYGTPWTFGGGTKVEIKR , readout=pIC50) returns 9.47
